Experiment: chemical genetic growth profiling, strain panel (AID 1159580);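 also: tested at 20 µM; growth read once vehicle control cultures reached saturation at 30 °C; lower values mean less growth of the strain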
Conditions: S. cerevisiae deletion strains, growth OD, locus YHR082C, strain KSP1, stronger effect = lower value
Hit rate of the full screen: of about 5,500 compounds, about 2,000 (36%) were called active. Roughly 18% stayed inconclusive and do not appear here. This is one part of the list.
Lab note: anything with normalized growth below 0.9 is marked fulfilled; values at 0.9 or higher are marked not fulfilled.

O=C(NNc1cc(C(F)(F)F)cc(C(F)(F)F)c1)c1cnc2n(c1=O)CCS2; not fulfilled
FC(F)(F)Oc1ccc(OCc2n[nH]c(=S)n2-c2ccc(Cl)cc2)cc1; not fulfilled

Could you now consider this next molecule?
Task item: Strictly below 0.9: is that where normalized growth of Cc1ccc(Sc2ncccc2NS(=O)(=O)c2ccc(Cl)cc2)cc1 sits?
Reply: fulfilled

src = PubChem BioAssay AID1159580
